Every entry's value here was drawn from paper PMC4335062.

molecular target: DBP (Homo sapiens, UniProt Q10586); construct: made in house; experiment: Direct-binding FRET assay; conditions: Kd, 4°C; C-terminal rhodamine design; mean or single
Sequence (Q10586 255-318 limits assumed): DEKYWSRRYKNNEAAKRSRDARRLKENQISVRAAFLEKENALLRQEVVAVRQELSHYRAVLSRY
pKd: −log10 of the molar value. Where no end group is shown, it is not given here.
ENDPOINT: pKd

INSERT INTO results (residue_sequence, target, result) VALUES
  ('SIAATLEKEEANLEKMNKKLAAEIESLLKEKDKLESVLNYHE [JUN-d1]', 'DBP (Homo sapiens, UniProt Q10586)', '< 5.30');

* * *

target: NFE2L2 (Homo sapiens); construct: made in house; assay: Direct-binding FRET assay; settings: Kd, 23°C; N-terminal rhodamine design; mean or single
Sequence (Q16236 497-560 limits assumed): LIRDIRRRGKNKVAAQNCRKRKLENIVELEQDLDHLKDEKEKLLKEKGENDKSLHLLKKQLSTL
Where no end group is shown, it is not given here.
ENDPOINT: Kd

INSERT INTO results (residue_sequence, endpoint, result) VALUES
  ('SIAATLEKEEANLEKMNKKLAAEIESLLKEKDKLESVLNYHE [JUN-d1]', 'Kd', '> 1000 nM');

* * *

target: DBP (Homo sapiens, UniProt Q10586); construct: made in house; test: Direct-binding FRET assay; conditions: Kd, 37°C; N-terminal rhodamine design; mean or single
Where no end group is shown, it is not given here.
ENDPOINT: Kd

INSERT INTO results (residue_sequence, result) VALUES
  ('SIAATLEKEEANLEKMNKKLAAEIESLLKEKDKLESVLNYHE [JUN-d1]', '> 1000 nM');

* * *

molecular target: BATF2 (Homo sapiens); construct: made in house; test: Direct-binding FRET assay; details: Kd, 23°C; C-terminal fluorescein design as donor, TAMRA target titrated
Sequence (Q8N1L9 17-80 limits assumed): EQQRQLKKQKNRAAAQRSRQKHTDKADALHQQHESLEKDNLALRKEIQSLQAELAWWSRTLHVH
Where no end group is shown, it is not given here.
ENDPOINT: Kd

INSERT INTO measurements (residue_sequence, endpoint, result) VALUES
  ('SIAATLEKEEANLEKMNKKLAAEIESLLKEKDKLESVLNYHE [JUN-d1]', 'Kd', '> 1000 nM');

* * *

Catalogue of sequences with associated Kd
biological target: CREB3L1 (Homo sapiens, UniProt Q96BA8); construct: made in house; experiment: Direct-binding FRET assay; conditions: 23°C; C-terminal rhodamine design; mean or single; read-out: Kd
Where no end group is shown, it is not given here.
ENDPOINT: Kd

INSERT INTO measurements (residue_sequence, target, endpoint, result) VALUES
  ('KRIAYLRQRIAELRNENHVLESRIQRMEKEKDALQQDRDHLEYEL [ATF5-d1]', 'CREB3L1 (Homo sapiens, UniProt Q96BA8)', 'Kd', '529 nM'),
  ('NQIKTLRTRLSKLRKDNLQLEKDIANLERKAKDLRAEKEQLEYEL [ATF4-d1]', 'CREB3L1 (Homo sapiens, UniProt Q96BA8)', 'Kd', '< 200 nM'),
  ('EREAQLENRVAHLKEKNQELKAQNLHLKEALSEAQNRNQELKNDA [XBP1-d1]', 'CREB3L1 (Homo sapiens, UniProt Q96BA8)', 'Kd', '> 1000 nM');

* * *

target: JUNB (Homo sapiens, UniProt P17275); construct: made in house; assay: Direct-binding FRET assay; settings: 23°C; C-terminal fluorescein design as donor, TAMRA target titrated; read-out: Kd
Sequence (P17275 268-331 limits assumed): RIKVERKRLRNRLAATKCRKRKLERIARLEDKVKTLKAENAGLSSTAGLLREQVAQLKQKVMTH
Where no end group is shown, it is not given here.
ENDPOINT: Kd

INSERT INTO measurements (residue_sequence, target, endpoint, result) VALUES
  ('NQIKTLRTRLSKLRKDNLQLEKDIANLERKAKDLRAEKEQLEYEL [ATF4-d1]', 'JUNB (Homo sapiens, UniProt P17275)', 'Kd', '> 1 µM');

* * *

biological target: ATF5 (Homo sapiens, UniProt Q9Y2D1); construct: made in house; test: Direct-binding FRET assay; settings: Kd, 4°C; N-terminal rhodamine design; mean or single
Sequence (Q9Y2D1 208-271 limits assumed): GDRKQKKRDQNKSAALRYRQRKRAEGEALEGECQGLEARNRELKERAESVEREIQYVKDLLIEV
pKd: −log10 of the molar value. Where no end group is shown, it is not given here.
ENDPOINT: pKd

INSERT INTO assay_data (residue_sequence, result) VALUES
  ('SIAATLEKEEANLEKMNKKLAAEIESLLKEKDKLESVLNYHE [JUN-d1]', '< 6.00');

* * *

target: BACH1 (Homo sapiens); test: Direct-binding FRET assay; set-up: made in house; conditions: 23°C; C-terminal rhodamine design; mean or single
Sequence (O14867 557-620 limits assumed): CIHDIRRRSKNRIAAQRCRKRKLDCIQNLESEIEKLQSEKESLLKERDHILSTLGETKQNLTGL
pKd: −log10 of the molar value. Where no end group is shown, it is not given here.
ENDPOINT: pKd

INSERT INTO measurements (residue_sequence, target, endpoint, result) VALUES
  ('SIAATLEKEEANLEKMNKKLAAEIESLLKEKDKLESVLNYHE [JUN-d1]', 'BACH1 (Homo sapiens)', 'pKd', '< 6.00');

* * *

Catalogue of sequences with associated pKd
target: ATF6B (Homo sapiens); test: Direct-binding FRET assay; set-up: made in house; conditions: 37°C; N-terminal rhodamine design; mean or single; read-out: Kd
Sequence (Q99941 325-388 limits assumed): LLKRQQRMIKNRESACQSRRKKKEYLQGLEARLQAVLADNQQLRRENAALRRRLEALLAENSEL
pKd: −log10 of the molar value. Where no end group is shown, it is not given here.
ENDPOINT: pKd

INSERT INTO measurements (residue_sequence, target, result) VALUES
  ('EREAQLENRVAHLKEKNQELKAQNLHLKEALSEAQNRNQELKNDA [XBP1-d1]', 'ATF6B (Homo sapiens)', '< 6.00'),
  ('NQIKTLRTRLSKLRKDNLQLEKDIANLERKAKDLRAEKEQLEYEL [ATF4-d1]', 'ATF6B (Homo sapiens)', '< 6.00');

* * *

target: ATF2 (Homo sapiens); construct: made in house; test: Direct-binding FRET assay; conditions: Kd, 4°C; N-terminal rhodamine design; mean or single
Sequence (P15336 352-415 limits assumed): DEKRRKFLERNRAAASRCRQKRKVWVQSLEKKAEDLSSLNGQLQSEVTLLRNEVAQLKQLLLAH
pKd: −log10 of the molar value. Where no end group is shown, it is not given here.
ENDPOINT: pKd

INSERT INTO measurements (residue_sequence, result) VALUES
  ('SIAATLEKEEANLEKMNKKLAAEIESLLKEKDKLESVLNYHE [JUN-d1]', '6.00 to 6.70');

* * *

target: NFIL3 (Homo sapiens, UniProt Q16649); construct: made in house; assay: Direct-binding FRET assay; settings: 23°C; C-terminal rhodamine design; repeat 2; read-out: Kd
Sequence (Q16649 73-136 limits assumed): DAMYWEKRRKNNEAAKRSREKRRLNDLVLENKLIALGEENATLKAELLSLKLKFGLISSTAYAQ
Where no end group is shown, it is not given here.
ENDPOINT: Kd

INSERT INTO results (residue_sequence, result) VALUES
  ('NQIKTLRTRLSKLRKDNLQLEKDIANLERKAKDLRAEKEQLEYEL [ATF4-d1]', '> 5 µM');

* * *

molecular target: CREB3L3 (Homo sapiens, UniProt Q68CJ9); construct: made in house; experiment: Direct-binding FRET assay; conditions: 4°C; C-terminal fluorescein design as donor, TAMRA target titrated; read-out: Kd
Sequence (Q68CJ9 243-306 limits assumed): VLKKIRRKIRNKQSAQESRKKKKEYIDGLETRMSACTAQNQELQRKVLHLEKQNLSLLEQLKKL
Where no end group is shown, it is not given here.
ENDPOINT: Kd

INSERT INTO results (residue_sequence, result) VALUES
  ('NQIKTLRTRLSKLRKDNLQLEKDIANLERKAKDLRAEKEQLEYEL [ATF4-d1]', '> 1 µM');

* * *

Catalogue of sequences with associated Kd
Target: JUN (Homo sapiens)
Assay: Direct-binding FRET assay
Parameters: made in house
Conditions: 4°C; C-terminal rhodamine design; mean or single; read-out: Kd
Experimental: The direct binding assay was performed manually in 384-well plates and is similar to a previously described assay. Wells were filled with 20 μL of 1 mM TCEP-HCl. […] Briefly, the Kd of the designed peptide homodimer was experimentally determined and used with previously determined target homodimer Kd values to determine the heterodimer Kd. […] A minimum 15% change in the donor fluorescence upon titrating the acceptor peptide from 0 to 1000 nM was required for a fit to be attempted. […]
Where no end group is shown, it is not given here.
ENDPOINT: Kd

INSERT INTO assay_data (residue_sequence, result) VALUES
  ('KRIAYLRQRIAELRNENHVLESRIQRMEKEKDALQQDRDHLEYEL [ATF5-d1]', '119 nM'),
  ('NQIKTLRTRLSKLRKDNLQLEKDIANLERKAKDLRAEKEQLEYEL [ATF4-d1]', '< 200 nM'),
  ('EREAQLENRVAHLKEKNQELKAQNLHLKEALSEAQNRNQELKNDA [XBP1-d1]', '> 1000 nM');

* * *

Target: ATF5 (Homo sapiens)
Construct: made in house
Assay: Direct-binding FRET assay
Settings: 37°C; N-terminal rhodamine design; repeat 3; read-out: Kd
Method: The direct binding assay was performed manually in 384-well plates and is similar to a previously described assay. Wells were filled with 20 μL of 1 mM TCEP-HCl. […] Briefly, the Kd of the designed peptide homodimer was experimentally determined and used with previously determined target homodimer Kd values to determine the heterodimer Kd. […] A minimum 15% change in the donor fluorescence upon titrating the acceptor peptide from 0 to 1000 nM was required for a fit to be attempted. […]
pKd: −log10 of the molar value. Where no end group is shown, it is not given here.
ENDPOINT: pKd

INSERT INTO assay_data (residue_sequence, target, result) VALUES
  ('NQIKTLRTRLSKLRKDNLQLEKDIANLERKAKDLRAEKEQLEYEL [ATF4-d1]', 'ATF5 (Homo sapiens)', '< 6.00'),
  ('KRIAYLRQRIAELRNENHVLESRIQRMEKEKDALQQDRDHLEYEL [ATF5-d1]', 'ATF5 (Homo sapiens)', '< 5.30');
